# test_details: In Vitro Microsome Stability Assay (human)
# Assay type: in vitro ADME
# recorded_conditions: human liver microsomes, 30 min w/ NADPH
experimental_endpoint: Liver Microsome Stability-% Left after 30 min w/ NADPH (%) Human

Check out these entries, answers already filled in.
COc1cc(F)ccc1N1CCN(S(=O)(=O)N2CCCN(CC3CCCCC3)CCCN(S(=O)(=O)c3ccc(N(C)C)cc3)CC3(CC3)C2)CC1 [A193] : 34.2
COc1cc(F)cc(N2CCN(S(=O)(=O)N3CCCN(CC4CCCCC4)CCCN(S(=O)(=O)c4ccc(N(C)C)cc4)CC4(CC4)C3)C[C@H]2C)c1 [A195] : 53.6
C[C@H]1CN(S(=O)(=O)c2ccc(N(C)C)cc2)CCCN(CC(C)(C)C)CCCN(S(=O)(=O)N2CCc3cc(Cl)ccc3C2)C1 [A107] : 83.9
COc1cc(F)cc(N2[C@H](C)CN(S(=O)(=O)N3CCCN(CC4CCCCC4)CCCN(S(=O)(=O)c4ccc(N(C)C)cc4)C[C@H](C)C3)C[C@@H]2C)c1 [A197] : 70.7
C[C@H]1CN(S(=O)(=O)Cc2ccccc2)CCCN(CC2CCCCC2)CCCN(S(=O)(=O)N2CCc3cc(Cl)ccc3C2)C1 [A171] : 0.60
COc1c(N2CCN(S(=O)(=O)N3CCCN(CC4CCCCC4)CCCN(S(=O)(=O)c4ccc(N(C)C)cc4)C[C@H](C)C3)CC2)ccc(F)c1F [A174] : 41.7
C[C@H]1CN(S(=O)(=O)c2ccc(N(C)C)cc2)CCCN(CCC2CCCC2)CCCN(S(=O)(=O)N2CCc3cc(Cl)ccc3C2)C1 [A120] : 4.78
COc1cccc2c1CCN(S(=O)(=O)N1CCCN(CC3CCCCC3)CCCN(S(=O)(=O)c3ccc(N(C)C)cc3)C[C@H](C)C1)C2 [A138] : 8.84

[P] C[C@H]1CN(S(=O)(=O)c2ccc(N(C)C)cc2)CCCN(CCC(F)(F)F)CCCN(S(=O)(=O)N2CCc3cc(Cl)ccc3C2)C1 [A165]
[Q] C=C1CN(S(=O)(=O)c2ccc(N(C)C)cc2)C(C)CCN(CC2CCCCC2)CCCN(S(=O)(=O)N2CCC(c3ccccc3)CC2)C1 (stereo not drawn) [B19]
[in] Between P and Q , whose recorded Liver Microsome Stability-% Left after 30 min w/ NADPH (%) Human is greater? Return value: the label identifying the chosen record.
[out] Q

[P] Cc1cc(F)ccc1N1CC2(C1)CN(S(=O)(=O)N1CCCN(CC3CCCCC3)CCCN(S(=O)(=O)c3ccc(N(C)C)cc3)C[C@H](C)C1)C2 [A161]
[Q] C[C@H]1CN(S(=O)(=O)c2ccc(N(C)C)cc2)CCCCN(S(=O)(=O)N2CCc3cc(Cl)ccc3C2)C1 [B21]
[R] Cc1ccccc1CN1CCCN(S(=O)(=O)c2ccc(N(C)C)cc2)C[C@H](C)CN(S(=O)(=O)N2CCc3cc(Cl)ccc3C2)CCC1 [A133]
[in] Rank order required: Liver Microsome Stability-% Left after 30 min w/ NADPH (%) Human, descending. Response format: the labels, sorted as the prompt asks.
[out] R, P, Q
(R: 71.3%, P: 20.2%, Q: 0.17%)

###

# Tested on: full length IL-2 (amino acids 1-153) fused to Gaussia Luciferase
# test_details: Dox Induced IL2-FL-Gluc Assay
# Format: cell-based
# recorded_conditions: 24 hr, Dox inducible, 293FRT/TO cells; read-out: 24 hr Dox Inducible IL2FLGluc 293FRT/TO: Mean IC50
pIC50: −log10 of the molar value.
experimental_endpoint: pIC50

Check out these entries, answers already filled in.
COc1ccccc1N1CCN(S(=O)(=O)N2CCCN(CC3CCCCC3)CCCN(S(=O)(=O)c3ccc(N(C)C)cc3)C[C@H](C)C2)CC1 [A154] : 7.23
Cc1cccc2c1CCN(S(=O)(=O)N1CCCN(CC3CCCCC3)CCCN(S(=O)(=O)c3ccc(N(C)C)cc3)C[C@H](C)C1)C2 [A166] : 7.52
Cc1cccc(CN2CCCN(S(=O)(=O)c3ccc(N(C)C)cc3)C[C@H](C)CN(S(=O)(=O)N3CCc4cc(Cl)ccc4C3)CCC2)c1 [A156] : 6.68
C[C@H]1CN(S(=O)(=O)c2ccc(N(C)C)cc2)CCCN(CC2CCCCC2)CCCN(S(=O)(=O)N2CCc3c(Cl)cccc3C2)C1 [A181] : 6.91
COc1cc(F)ccc1C1CN(S(=O)(=O)N2CCCN(CC3CCCCC3)CCCN(S(=O)(=O)c3ccc(N(C)C)cc3)C[C@H](C)C2)C1 [A178] : 6.59
C[C@@H]1CN(S(=O)(=O)NCc2ccccc2)CCCN(CC2CCCCC2)CCCN(S(=O)(=O)c2ccc(N(C)C)cc2)C1 [A187] : 5.96

[P] COc1cc(F)ccc1N1CCN(S(=O)(=O)N2CCCN([C@@H](C)C3CCCCC3)CCCN(S(=O)(=O)c3ccc(N(C)C)cc3)C[C@H](C)C2)C[C@H]1C [A207]
[Q] CC(=O)N(C)c1ccc(CNS(=O)(=O)N2CCCN(CC3CCCCC3)CCCN(S(=O)(=O)c3ccc(N(C)C)cc3)C[C@H](C)C2)cc1 [A192]
[in] Between P and Q , whose recorded pIC50 is greater? Return value: the label identifying the chosen record.
[out] P
(P: 7.97, Q: 5.63)

[a] C[C@H]1CN(S(=O)(=O)c2ccc(N(C)C)cc2)CCCN(CCC(F)(F)F)CCCN(S(=O)(=O)N2CCc3cc(Cl)ccc3C2)C1 [A165]
[b] CCC(C)CN1CCCN(S(=O)(=O)c2ccc(N(C)C)cc2)C[C@H](C)CN(S(=O)(=O)N2CCc3cc(Cl)ccc3C2)CCC1 (stereo partly drawn) [A106]
[in] Between item a and item b , which reported pIC50 is smaller? Return value: the label identifying the chosen record.
[out] a
(a: 6.53, b: 6.90)
